Where these numbers come from: PubChem BioAssay (Tox21)

- ASSAY_METHOD_TEXT: qHTS assay to identify small molecule agonists of the constitutive androstane receptor (CAR) signaling pathway - cell viability counter screen (AID 1224836); also: nearly all actives have a fitted effect of over 45% in size
- EXPERIMENTAL_CONTEXT: HepG2-CYP2B6-hCAR viability, CellTiter-Fluor, 23 h, PK11195 added to every well; series mostly up to 92.4 µM
Records with an inconclusive call do not appear. Activity calls are given as the source filed them. Calls follow the shape of the dose curve; as a rule, active = well fitted cell-killing curve with a large enough effect in the repeat runs; inconclusive = weak or mixed curves, or effect the other way; inactive = flat fitted curve, though single readings scatter.
Tick one outcome: active, inactive

Problem: For this molecule, state the assay outcome: O=C1C(Cl)=C(Cl)C(=O)c2ccccc21
Solution: inactive

Problem: Any idea what this test logged for CC(C)CON=O ?
Solution: inactive

Problem: Can you look up the reported call for CCCCCCCCCCCCCl for me?
Solution: inactive

Problem: Status in this test for CCNCC ?
Solution: inactive

Problem: What classification did CC(C)(c1ccccc1)c1ccc(O)cc1 end up with in this test?
Solution: inactive

Problem: Each molecule tested received a call. Report the one for CCNc1nc(Cl)nc(NC(C)(C)C#N)n1 .
Solution: inactive

Problem: Hello, I am checking results. What call was entered for COc1ccc(O)c(C(C)(C)C)c1 ?
Solution: inactive

Problem: For Brc1ccc(Br)cc1 , what call appears in the results of this test?
Solution: inactive

Problem: Dear all, I need the recorded test outcome for ClC(Cl)=C(Cl)C(Cl)=C(Cl)Cl , thank you.
Solution: inactive

Problem: So what was the verdict on CC1=C(C(=O)Nc2ccccc2)SCCO1 in this test?
Solution: inactive

Problem: Assay result, entry CN(C)c1ccccc1 — outcome?
Solution: inactive

Problem: GET /call?item= NN=C(N)N returns the recorded outcome of this test.
Solution: inactive

Problem: I would be grateful if you could indicate the recorded call for [CH3][Sn]([Cl])([Cl])[Cl] .
Solution: inactive

Problem: Kindly provide the recorded test outcome for the following molecule: C[N+](C)(C)C
Solution: inactive

Problem: What call does the record list for CCOS(=O)(=O)OCC ?
Solution: inactive

Problem: Given CC(C)(c1ccc(OCC2CO2)cc1)c1ccc(OCC2CO2)cc1 (stereo not drawn) , state the outcome it received in this test.
Solution: inactive

Problem: Write down the call the test reported for this molecule. Item: Oc1ccc(Cl)cc1Cl
Solution: inactive

Problem: Assay outcome for CCOP(=S)(OCC)SCSC(C)(C)C : what was it?
Solution: inactive

Problem: I'd appreciate the recorded outcome for O=C1CCCO1 from this test.
Solution: inactive

Problem: Dear colleague, could you share the recorded outcome for CNC(=S)S when you have a moment?
Solution: inactive

Problem: In this assay, the call recorded for O=[N+]([O-])c1ccc(Nc2ccccc2)cc1 was what?
Solution: active

Problem: // param item: NC(=O)CN1CCCC1=O ; yields the recorded call
Solution: inactive

Problem: Recorded test outcome, item C[N+](C)(C)CC(=O)[O-]
Solution: inactive

* * *

- TARGET_ENTITY: Estrogen receptor (Homo sapiens) (UniProt P03372)
- Sequence (P03372 whole entry, looked up): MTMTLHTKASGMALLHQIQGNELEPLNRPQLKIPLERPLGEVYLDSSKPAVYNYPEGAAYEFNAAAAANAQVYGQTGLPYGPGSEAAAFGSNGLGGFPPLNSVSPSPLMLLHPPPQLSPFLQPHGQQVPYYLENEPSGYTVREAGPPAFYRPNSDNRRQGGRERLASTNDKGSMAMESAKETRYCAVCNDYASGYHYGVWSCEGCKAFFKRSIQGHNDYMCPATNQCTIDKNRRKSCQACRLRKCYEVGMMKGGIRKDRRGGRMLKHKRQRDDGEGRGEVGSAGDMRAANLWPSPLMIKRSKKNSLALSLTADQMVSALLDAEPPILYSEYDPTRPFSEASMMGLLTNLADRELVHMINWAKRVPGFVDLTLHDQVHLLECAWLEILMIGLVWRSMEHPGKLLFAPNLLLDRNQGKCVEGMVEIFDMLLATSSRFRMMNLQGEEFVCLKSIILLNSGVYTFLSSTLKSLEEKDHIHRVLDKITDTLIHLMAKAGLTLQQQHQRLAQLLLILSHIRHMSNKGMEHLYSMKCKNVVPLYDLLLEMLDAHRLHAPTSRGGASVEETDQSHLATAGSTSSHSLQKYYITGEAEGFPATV
- ASSAY_METHOD_TEXT: qHTS assay to identify small molecule antagonists of the estrogen receptor alpha (ER-alpha) signaling pathway using the BG1 cell line in the presence of 0.1 nM 17-beta-estradiol (AID 1259244); also: nearly all actives have a fitted effect of over 50% in size; also: potency is read from the fitted curve at half-maximal effect
- EXPERIMENTAL_CONTEXT: VM7Luc4E2 (BG1) ERE-luciferase, antagonist mode, 0.1 nM E2, 22 h; series mostly up to 92.4 µM
Inconclusive results are not listed. The source made the active and inactive calls. The call rests on the fitted dose curve; in most records, active means well fitted inhibition curve with a large enough effect in the repeat runs; inconclusive means weak or mixed curves; inactive means no such curve, though single readings can be large or run the other way.
MEASUREMENT_KIND: Potency

Study these solved cases before continuing.
Cc1ccc([N+](=O)[O-])cc1 | inactive
Clc1cccc(C(Cl)(Cl)Cl)n1 | inactive
CCC1(c2ccc(N)cc2)CCC(=O)NC1=O (stereo unspecified) | inactive
CCCCOCCOC(C)=O | inactive

Problem: So what does the record say about Potency for CCN(CC)C(=O)C(C)Oc1cccc2ccccc12 (stereo unspecified) ?
Solution: 61.1 µM (active)

Problem: If you can, please state the reported Potency value of CCCCOC(=O)COC(=O)c1ccccc1C(=O)OCCCC .
Solution: inactive

* * *

- ASSAY_METHOD_TEXT: qHTS assay to identify small molecule antagonists of the estrogen related receptor signaling pathway with the pleiotropic PPARgamma coactivator (PGC) from Tox21 10K library (AID 1224841); also: % is scaled to controls: 0 for no effect and ±100 for the full control effect; actives are mostly falling curves and most rising ones were filed inactive; nearly all actives have a fitted effect of over 50% in size
- EXPERIMENTAL_CONTEXT: PGC/ERR reporter cell line, ONE-Glo luciferase, 18 h; series mostly up to 92.4 µM
Results filed as inconclusive are left out. Calls of active or inactive are those of the source. How the calls were made is not given here.
MEASUREMENT_KIND: outcome

CC(C)=CC1C(C(=O)OCc2cccc(Oc3ccccc3)c2)C1(C)C (stereo not drawn) | inactive
Brc1ccc(Br)cc1 | inactive
CN(C)c1ccccc1 | inactive

* * *

- ASSAY_METHOD_TEXT: A CellTox Green Cytotoxicity Assay to monitor cytotoxicity in HEK293 cells - 24 hour (AID 1224875); also: % is scaled to controls: 0 for no effect and ±100 for the full control effect; nearly all actives have a fitted effect of over 45% in size
- EXPERIMENTAL_CONTEXT: CellTox Green fluorescence; series mostly up to 76.8 µM
Records with an inconclusive call do not appear. Active and inactive are the calls of the source. The call rests on the fitted dose curve; in most records, active means well fitted activation curve with a large enough effect in the repeat runs; inconclusive means weak or mixed curves; inactive means flat fitted curve, though single readings scatter.
MEASUREMENT_KIND: outcome

Recorded outcome, per entry:
C=C(C)C#N | inactive
C[N+](C)(C)C | inactive
CCOS(=O)(=O)OCC | inactive
ClC(Cl)(Cl)c1ccccc1 | inactive
OCCOCCO | inactive
O=NN1CCOCC1 | inactive

Problem: GET /values?readout=outcome&item= CC(C)=CC1C(C(=O)OCN2C(=O)C3=C(CCCC3)C2=O)C1(C)C (stereo not drawn)
Solution: inactive

Problem: Fill in the blank: the reported outcome of NN=C(N)N is ____.
Solution: inactive

Problem: Please look up its outcome: N#Cc1nn(-c2c(Cl)cc(C(F)(F)F)cc2Cl)c(N)c1S(=O)C(F)(F)F (stereo not drawn)
Solution: inactive

Problem: Record request: outcome value, item CC(C)(O)C#N
Solution: inactive

Problem: Recorded outcome of Clc1cccc(C(Cl)(Cl)Cl)n1 , please.
Solution: inactive

Problem: Return reported outcome; argument: CCC1(c2ccc(N)cc2)CCC(=O)NC1=O (stereo not drawn)
Solution: inactive

Problem: Which outcome value is on record for CC1=C(C(=O)Nc2ccccc2)SCCO1 ?
Solution: inactive

* * *

- ASSAY_METHOD_TEXT: qHTS assay to test for compound auto fluorescence at 535 nm (green) in HepG2 cell free culture (AID 720686); also: % is scaled to controls: 0 for no effect and ±100 for the full control effect
- EXPERIMENTAL_CONTEXT: Cell-free medium, green autofluorescence 485/535 nm; series mostly up to 91.3 µM
Activity calls are given as the source filed them. Calls follow the shape of the dose curve; as a rule, active = well fitted curve in the direction sought with a large enough effect in the repeat runs; inconclusive = weak or mixed curves; inactive = flat fitted curve, though single readings scatter.
MEASUREMENT_KIND: outcome

Worked set:
Clc1ccc(C(Cl)(Cl)Cl)cc1 | inactive
CC[n+]1c(-c2ccccc2)c2cc(N)ccc2c2ccc(N)cc21 | inactive
CC(C)Nc1ccc(Nc2ccccc2)cc1 | inactive
CC(C)=CC1C(C(=O)OCN2C(=O)C3=C(CCCC3)C2=O)C1(C)C (stereo not drawn) | inactive
N#Cc1c(Cl)c(Cl)c(Cl)c(C#N)c1Cl | inactive
CN(C)P(=O)(N(C)C)N(C)C | inactive

Problem: May I ask what outcome has been recorded for C[N+](C)(C)CC(=O)O ?
Solution: inactive

Problem: Would you kindly share the measured outcome for O=C(O)CF ?
Solution: inactive

* * *

- ASSAY_METHOD_TEXT: qHTS RealTime-Glo MT Cell Viability Assay in HepG2 cells - 32 hour (AID 1224877); also: nearly all actives have a fitted effect of over 55% in size
- EXPERIMENTAL_CONTEXT: RealTime-Glo luminescence; series mostly up to 76.8 µM
Records with an inconclusive call do not appear. Active and inactive are the calls of the source. The call rests on the fitted dose curve; in most records, active means well fitted cell-killing curve with a large enough effect in the repeat runs; inconclusive means weak or mixed curves; inactive means flat fitted curve, though single readings scatter.
// classify into 1 = active, 0 = inactive

Problem: GET /call?item= Clc1ccccc1-c1nnc(-c2ccccc2Cl)nn1 returns the recorded outcome of this test.
Solution: 0

Problem: Please share the test call associated with COc1ccc(O)c(C(C)(C)C)c1 .
Solution: 0

Problem: Dear all, I need the recorded test outcome for CSc1nc(NC(C)C)nc(NC(C)C)n1 , thank you.
Solution: 0

Problem: Outcome? CCN(CC)C(=O)C(C)Oc1cccc2ccccc12 (stereo unspecified)
Solution: 0

Problem: What classification did S=c1[nH]c2ccccc2[nH]1 end up with in this test?
Solution: 0

Problem: # fetch the recorded call for CC(C)Nc1ccc(Nc2ccccc2)cc1 here
Solution: 1

* * *

- TARGET_ENTITY: Progesterone receptor (Homo sapiens)
- ASSAY_METHOD_TEXT: qHTS assay to identify small molecule antagonists of the progesterone receptor (PR) signaling pathway (AID 1346795)
- EXPERIMENTAL_CONTEXT: PR-UAS-bla HEK293T, beta-lactamase FRET ratio, 16 h; series mostly up to 92.4 µM
Inconclusive results are not listed. Activity calls are given as the source filed them. The call rests on the fitted dose curve; in most records, active means well fitted inhibition curve with a large enough effect in the signal ratio in the repeat runs (not every such curve was filed as active); inconclusive means weak or mixed curves; inactive means flat fitted curve, though single readings scatter; the % refers to the signal ratio.
Hi! Could you answer with just one of these? active, inactive

Problem: How did this test come out for CC(C)=CC1C(C(=O)OCc2cccc(Oc3ccccc3)c2)C1(C)C (configuration not stated) ?
Solution: inactive

Problem: In this assay, the call recorded for Nc1ccc2ccccc2c1 was what?
Solution: inactive

Problem: Fill in: this test's call for Clc1ccccc1-c1nnc(-c2ccccc2Cl)nn1 is ___
Solution: inactive

Problem: What outcome does the record of this test show for [CH3][Sn]([Cl])([Cl])[Cl] ?
Solution: inactive

Problem: Check the results log: what was the call for CCNc1nc(Cl)nc(NC(C)(C)C#N)n1 ?
Solution: inactive

Problem: State the result this test recorded for S=c1[nH]c2ccccc2[nH]1 .
Solution: active

Problem: Field: outcome | Entry: OC(c1ccc(Cl)cc1)(c1cncnc1)c1ccccc1Cl (configuration not stated)
Solution: active
